Every entry's value here was drawn from ChEMBL document CHEMBL1201862.

Experiment: blockers of HIV-1 envelope-mediated cell-cell fusion – cherry-pick, dose response (AID 652057)
Type: functional, cell-based
Active and inactive are the calls of the source.

Smiles repr | AC50
CC(=O)Nc1ccc(S(=O)(=O)Nc2ccc(N3CCCCC3)cc2)cc1 | 10.4 µM (active)
CO[C@H]1CN(C)C(=O)c2ccc(NC(=O)C3CC3)cc2OC[C@H](C)N(Cc2cc(F)ccc2F)C[C@@H]1C | 0.851 µM (active)
C=C1CCN([C@H](C(=O)OCc2ccc(C)cc2)C(C)C)S(=O)(=O)c2ccccc21 | 3.35 µM (active)
C[C@H]1CN([C@@H](C)CO)C(=O)c2c(c3ccccc3n2C)-c2ccccc2CO[C@H]1CN(C)C(=O)Cc1ccccc1 | < 0.26 µM (active)

====

Test system: H4
Assay: Luminescence Cell-Based Dose Response HTS to Identify Activators of 5'UTR Stem-Loop Driven Prion Protein mRNA Translation in H4 Neuroglioblastoma Cells. [Related pubchem assays: 1829 (Project Summary), 1814 (Primary HTS)]
Type: functional
Conditions: Homo sapiens
Activity calls are given as the source filed them.
Below, each entry is listed with its recorded EC50.

Smiles repr | EC50
Cc1ccc(Oc2cnn(-c3ccccc3)c(=O)c2Br)cc1 | 30.7 µM (active)
CCOC(=O)CSC1=NC(=O)/C(=C\c2ccc(OC(C)=O)cc2)S1 | 10.5 µM (active)
CN1C(=O)/C(=C2/C(=O)Nc3ccccc32)S/C1=N\c1ccc(Cl)cc1 | 32.3 µM (active)
O=C(NN=C(NS(=O)(=O)c1ccc(Cl)cc1)c1ccccc1)c1cccc(Cl)c1 | > 120 µM (not active)

====

// Cytochrome P450 2D6 (Homo sapiens, UniProt P10635) AC50 records
Assay endpoint: AC50

Compound | Observed result
O=C(OCc1nnc(-c2ccccc2)o1)c1ccc2c(c1)OCCO2 | 28.2 µM (inconclusive)
COC(=O)c1cc(NS(=O)(=O)c2ccc(N3CCCCCC3)c([N+](=O)[O-])c2)cc(C(=O)OC)c1 | 12.6 µM (inconclusive)
Cc1cc(C)c(Cn2cnc(-c3ccc([N+](=O)[O-])cc3)c2)c(C)c1 | 28.2 µM (inconclusive)
COc1ccccc1CNc1ncnc2ccc(-c3c(C)noc3C)cc12 | 39.8 µM (inconclusive)
O=C(/C=C/c1ccccc1)NC(NC(=S)Nc1ccc(Cl)cc1)C(Cl)(Cl)Cl (centres undefined) | 7.94 µM (inconclusive)
COc1ccc(CNn2c(C)nc3ccccc3c2=O)cc1 | 25.1 µM (inconclusive)
Cc1nc2ccccc2n1CC(=O)N/N=C\C=C\c1ccccc1 | 35.5 µM (inconclusive)
COc1ccc(C(C(=O)Nc2ccc(F)cc2)N(C(=O)Cn2nnc3ccccc32)C2CC2)cc1 (centres undefined) | 28.2 µM (inconclusive)
CCNc1ncc2nc(-c3cccs3)c(=O)n(C[C@H]3CCCO3)c2n1 | 0.2 µM (inconclusive)
CC(CO)Nc1nc(SCc2ccccc2)nc2sc3c(c12)CCC3 (centres undefined) | 12.6 µM (inconclusive)
COc1ccc(C(=O)NCC(=O)OCc2cccc(Br)c2)cc1 | 15.8 µM (inconclusive)
N#Cc1cccc(NC(=O)N2CCC3(CC2)CCN(C(=O)c2csnn2)CC3)c1 | 15.8 µM (inconclusive)
CC(C)c1cccc2nc3c(c([Si](C)(C)C)c12)Cn1c-3cccc1=O | 39.8 µM (inconclusive)
c1cc2cc(c1)C[n+]1ccc(c3ccccc31)NCc1ccc(cc1)CNc1cc[n+](c3ccccc13)C2 | 39.8 µM (inconclusive)
